Target: T1, ScoNrdR (Streptomyces coelicolor, UniProt O69980 1-182)
T1 sequence: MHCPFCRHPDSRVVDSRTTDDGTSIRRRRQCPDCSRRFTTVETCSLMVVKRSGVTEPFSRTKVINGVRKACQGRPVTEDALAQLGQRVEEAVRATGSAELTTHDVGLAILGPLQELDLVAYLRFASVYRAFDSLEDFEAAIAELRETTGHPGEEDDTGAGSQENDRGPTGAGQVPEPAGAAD
Assay: MST; dATP + ATP; MST, temperature not stated. Lmo: 25 mM Bis-Tris propane pH 6.5, 100 mM KCl, 5 mM MgCl2, 5% glycerol, 1 mM DTT, 0.05% Tween 20, one nucleotide 1 mM or two at 0.5 mM each; Spn: 25 mM HEPES pH 7.2, 250 mM NaCl, 2.5 mM MgCl2, 15% glycerol, 2 mM DTT, 0.1 mg/mL BSA, 0.05% Tween 20, 0.5 mM ATP and/or dATP; Eco: 25 mM Tris pH 8.5, 100 mM NaCl, 7 mM MgCl2, 1 mM DTT, 0.025% Tween 20, 1 mM ATP + 1 mM dATP; …
Conditions: protein: recombinant; chain copies: 4; label: 5'-Cy5 sense; blunt
Provide the reported Kd of each item.
Numbers only, in nM.

Synt 16 bp spacer (dsDNA) DNA 1: GCCAAACACAACATCTAGTGGTTGGATAGCGTGAAGCACACAACATCTAGTGGACCTC DNA 2: GAGGTCCACTAGATGTTGTGTGCTTCACGCTATCCAACCACTAGATGTTGTGTTTGGC : 28

Kindly consider the entry below.
Qu. Need Kd of Synt 20 bp spacer (dsDNA) DNA 1: GCCAAACACAACATCTAGTGGTTGGATAGCGTGACAGTAGCACACAACATCTAGTGGACCTC DNA 2: GAGGTCCACTAGATGTTGTGTGCTACTGTCACGCTATCCAACCACTAGATGTTGTGTTTGGC , thanks.
Ans. 2190
